Measured EC50 (read off the curve), listed per entry.
- System name: T1, human ICOS (human, UniProt Q9Y6W8 21-199)
- T1 construct: The cell that carries it is named under assay; also called huICOS; CD278
- T1 sequence: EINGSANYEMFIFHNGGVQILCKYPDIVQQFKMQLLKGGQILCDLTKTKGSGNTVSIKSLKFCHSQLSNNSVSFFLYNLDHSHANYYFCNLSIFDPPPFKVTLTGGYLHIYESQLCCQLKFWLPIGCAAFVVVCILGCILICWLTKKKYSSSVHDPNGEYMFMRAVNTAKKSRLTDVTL
- Experiment summary: flow cytometry on CHO cells expressing human ICOS, PE-labelled secondary antibody; y axis printed LOG10(MFI PE)
Outcome measure: EC50 (read off the curve)

binder="Molecule 31 (ICOS H1143v2_3) (antibody, human IgG1, kappa, L234A L235A, V domains shown, Human IgG format) VH: EVQLLESGGGLVQPGGSLRLSCAASGFDFSSAYDMSWVRQAPGKGLEWIGVIYYGDGITYYADSVKGRFTISRDNSNTLYLQMNSLRAEDTAVYFCARGAFLGSSYYLSLWGQGTLVTVSS VL: DIQMTQSPSSLSASVGDRVTITCRASENIYNWLAWYQQKPGKAPKLLIYDASKLASGVPSRFSGSGSGTDFTLTISSLQPEDFATYYCQQAYTYGNIDNAFGGGTKVEIKR" result="~2000 pM"
binder="Molecule 28 (ICOS 1143v2) (antibody, human IgG1, kappa, L234A L235A, V domains shown, Human IgG format; also called parent antibody of Molecules 29-31) VH: QSLEESGGDLVKPGASLTLTCKASGFDFSSAYDMSWVRQAPGKGLEWIGVIYYGDGITYYATSVKGRFTISKTSSTTVPLQMTSLTAADTATYFCARGAFLGSSYYLSLWGQGTLVTVSS VL: AIDMTQTPASVEAAVGGTVTINCQASENIYNWLAWYQQKPGQPPKLLIYDASKLASGVPSRFSASGSGTQFTLTISAVESADAATYYCQQAYTYGNIDNAFGGGTEVVVSR" result="~3000 pM"
binder="Molecule 30 (ICOS H1143v2_2) (antibody, human IgG1, kappa, L234A L235A, V domains shown, Human IgG format) VH: EVQLLESGGGLVQPGGSLRLSCAASGFDFSSAYDMSWVRQAPGKGLEWVSVIYYGDGITYYADSVKGRFTISKTSSKTTLYLQMNSLRAEDTAVYFCARGAFLGSSYYLSLWGQGTLVTVSS VL: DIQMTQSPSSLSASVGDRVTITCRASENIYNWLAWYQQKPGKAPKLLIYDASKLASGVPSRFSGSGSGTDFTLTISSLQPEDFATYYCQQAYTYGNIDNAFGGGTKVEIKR" result="~2000 pM"
binder="Molecule 29 (ICOS H1143v2_1) (antibody, human IgG1, kappa, L234A L235A, V domains shown, Human IgG format) VH: EVQLLESGGGLVQPGGSLRLSCAASGFDFSSAYDMSWVRQAPGKGLEWVSVIYYGDGITYYADSVKGRFTISRDNSKNTLYLQMNSLRAEDTAVYFCARGAFLGSSYYLSLWGQGTLVTVSS VL: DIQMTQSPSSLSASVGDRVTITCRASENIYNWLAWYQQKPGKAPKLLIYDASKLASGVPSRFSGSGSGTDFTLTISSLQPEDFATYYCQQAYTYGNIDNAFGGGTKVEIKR" result="~6000 pM"
